These measurements were taken from PubChem BioAssay (NCI).

Test system: BT-549 breast
protocolText: NCI-60 one-dose screen, 48 h (100 = growth as untreated, 0 = no growth, -100 = all killed)
runParameters: 10 µM unless noted
Compounds without any hit were thinned out: in the full panel of roughly 83,000, 20% have a hit.
measurementType: growth (%)

- compound: "Cc1cc2c(-c3nc4ccccn4c3NC3CCCCC3)c(O)c(O)cc2c(O)c1-c1c(C)cc2c(-c3nc4ccccn4c3NC3CCCCC3)c(O)c(O)cc2c1O"
  measureUnit: "%"
  experimentalValue: 30.1
- compound: "Cc1cc(C(=O)Nc2cc(Oc3ccc4nc(NC(=O)C5CC5)cn4n3)ccc2C)n(C)n1"
  measureUnit: "%"
  experimentalValue: 30.1
- compound: "CCCc1cc2cc(-n3nc(C)c4c3CC(C)(C)CC4=O)cc(NC3CCC(O)CC3)c2c(=O)[nH]1 (stereo not drawn)"
  measureUnit: "%"
  experimentalValue: 29.2

----------
System: K-562 leukemia
protocolText: NCI-60 one-dose screen, 48 h (100 = growth as untreated, 0 = no growth, -100 = all killed)
runParameters: 10 µM unless noted
About 83,000 compounds went through this panel and 20% of them were active in at least one assay; those are over-represented in the sample as a whole.

- moleculeSmiles: "Cc1cc(O)cc(-c2c(-c3ccnc(-c4cccnc4)c3)cnn2C)c1"
  growth [%]: 57.8
- moleculeSmiles: "Cc1cc(C(=O)NOCCO)c(Nc2ccc(I)cc2F)n(C)c1=O"
  growth [%]: 34.2
- moleculeSmiles: "Cn1c(=O)c(F)c(Nc2ccc(I)cc2F)c2c(=O)n(C[C@@H](O)CO)cnc21"
  growth [%]: 28.5
- moleculeSmiles: "CC(C)NC[C@@H](C(=O)N1CCN(c2ncnc3c2[C@H](C)C[C@H]3O)CC1)c1ccc(Cl)cc1"
  growth [%]: 64.7
- moleculeSmiles: "COc1cc2ncnc(Nc3ccc(O)cc3)c2cc1OC"
  growth [%]: 73

----------
Test system: OVCAR-8 ovarian
protocolText: NCI-60 one-dose screen, 48 h (100 = growth as untreated, 0 = no growth, -100 = all killed)
runParameters: 10 µM unless noted
Compounds without any hit were thinned out: in the full panel of roughly 83,000, 20% have a hit.
Param label: returns YES when growth < 40%, returns NO otherwise, including exact equality.

- compound: "COc1ccc(Cl)c(Nc2nc3ccccc3nc2NS(=O)(=O)c2cccc(NC(=O)C(C)(C)N)c2)c1"
  labelClass: "NO"
- compound: "CCCc1cc2cc(-n3nc(C)c4c3CC(C)(C)CC4=O)cc(NC3CCC(O)CC3)c2c(=O)[nH]1 (centres undefined)"
  labelClass: "YES"
- compound: "Cc1oc2c(C(=O)N/N=C\\c3ccc(O)cc3O)c[nH]c2c1C"
  labelClass: "YES"
- compound: "Cc1nc(NC(=O)N2CCC[C@H]2C(N)=O)sc1-c1ccnc(C(C)(C)C(F)(F)F)c1"
  labelClass: "NO"
- compound: "COc1ccc2c(CCCC(c3ccccc3)c3ccccc3)c3[n+](cc2c1OC)CCc1cc2c(cc1-3)OCO2"
  labelClass: "YES"
- compound: "O=C(Nc1ccc(C2=NCCCN2)cc1)c1ccc(C(=O)Nc2ccc(C3=NCCCN3)cc2)nc1"
  labelClass: "NO"
- compound: "O=C1CCC(=O)CC1"
  labelClass: "NO"
- compound: "CCn1c(-c2nonc2N)nc2c(C#CC(C)(C)O)ncc(OC[C@H]3CCCNC3)c21"
  labelClass: "NO"
- compound: "O=C(Cn1ccnc1)Nc1ccc(-c2nc3ccccc3s2)cc1"
  labelClass: "NO"
- compound: "COC(=O)c1ccc2c(C(=Nc3ccc(N(C)C(=O)CN4CCN(C)CC4)cc3)c3ccccc3)c(O)[nH]c2c1"
  labelClass: "NO"
- compound: "COc1cc2nccc(Oc3ccc(NC(=O)C4(C(=O)Nc5ccc(F)cc5)CC4)cc3)c2cc1OC"
  labelClass: "YES"
- compound: "COc1cc(CCc2cc(NC(=O)c3ccc(N4C[C@@H](C)N[C@@H](C)C4)cc3)n[nH]2)cc(OC)c1"
  labelClass: "NO"

----------
System: OVCAR-5 ovarian
protocolText: NCI-60 one-dose screen, 48 h (100 = growth as untreated, 0 = no growth, -100 = all killed)
runParameters: 10 µM unless noted
Compounds without any hit were thinned out: in the full panel of roughly 83,000, 20% have a hit.
Param label: returns True when growth < 90%, returns False otherwise, including exact equality.

- compound: "CC1(C)NC(=O)c2[nH]c3c(Cl)c(Cl)ccc3c2C1C#N (stereo unspecified)"
  labelClass: "True"
- compound: "Clc1ccc2c(NCCNc3nc(N4CCCC4)nc4ccccc34)ccnc2c1"
  labelClass: "True"
- compound: "N#Cc1c(C(F)(F)F)cc(Nc2ccc3nc(NCCN4CCCC4)oc3c2)n2c1nc1ccccc12"
  labelClass: "False"
- compound: "C[C@@H](NC(=O)c1ncnc(N)c1Cl)c1ncc(C(=O)Nc2cc(C(F)(F)F)c(Cl)cn2)s1"
  labelClass: "True"
- compound: "Nc1c(C(=O)c2ccccc2)sc2nc(-c3cccs3)ccc12"
  labelClass: "True"
- compound: "CC(C)C1CCC(C)C(C2(C#N)C(N)=NC(N)=C2C#N)C1=O (stereo unspecified)"
  labelClass: "False"

----------
growth: recorded values
Tested on: OVCAR-4 ovarian
protocolText: NCI-60 one-dose screen, 48 h (100 = growth as untreated, 0 = no growth, -100 = all killed)
runParameters: 10 µM unless noted
The panel holds about 83,000 compounds, 20% with a hit somewhere; the sample as a whole holds those more often. Active and inactive are the calls of the source. The calls were made as follows: active = growth percent below 10; inactive = the rest.

- molecule: "Clc1ccc2c(NCCCNCc3ccc4c(c3)OCO4)ccnc2c1"
  growth: "59.1% (inactive)"
- molecule: "Cc1cc(Nc2ncnc3ccc(NC4=NC(C)(C)CO4)cc23)ccc1Oc1ccn2ncnc2c1"
  growth: "44.2% (inactive)"
- molecule: "COc1c(OCCCN2CCOCC2)ccc2c3n(c(=NC(=O)c4cnc(N)nc4)nc12)CCN3"
  growth: "7.97% (active)"
- molecule: "O=C(NCCO)Nc1ccc(-c2nc(N3CCOCC3)c3cccn3n2)cc1"
  growth: "-15.5% (active)"
- molecule: "COC(=O)CNC(=O)[C@@H](OC)[C@@H]1Cc2cc3cc(OC4CC(OC5CC(O)C(O)C(C)O5)C(O)C(C)O4)c(C)c(O)c3c(O)c2C(=O)[C@H]1OC1CC(OC2CC(OC3CC(C)(O)C(O)C(C)O3)C(O)C(C)O2)C(O)C(C)O1 (some centres not stated)"
  growth: "2.95% (active)"
- molecule: "COC(=O)[C@@H](C)CNS(=O)(=O)N(c1cc(C(F)(F)F)cc(C(F)(F)F)c1)C1CCN(Cc2ccc(F)cc2)CC1"
  growth: "73.4% (inactive)"
- molecule: "N#Cc1c(NC(=O)c2ccco2)[n+]([O-])c2cc(F)c(F)cc2[n+]1[O-]"
  growth: "89.7% (inactive)"
- molecule: "CCc1ccc(C2=C(O)C(=O)C(c3ccc(CC)cc3)=C(O)C2=O)cc1"
  growth: "-0.208% (active)"
- molecule: "Nc1ncnc2c1ccn2-c1cccc(NC(=O)c2ccc(N3CCOCC3)c(C(F)(F)F)c2)c1"
  growth: "104% (inactive)"
- molecule: "CCN(CCO)CCCOc1ccc2c(Nc3cc(CC(=O)Nc4cccc(F)c4)[nH]n3)ncnc2c1"
  growth: "48.4% (inactive)"
- molecule: "Cn1cnc2c(F)c(Nc3ccc(Br)cc3F)c(C(=O)NOCCO)cc21"
  growth: "55.9% (inactive)"
- molecule: "COc1ccc(S(=O)(=O)N(C(C)=O)c2ccccc2/C=C/c2cc[n+]([O-])cc2)cc1"
  growth: "42.4% (inactive)"
- molecule: "CCNCCNc1cc(-c2ccc(Cl)c(Cl)c2)c(C#N)c2nc3ccccc3n12"
  growth: "-78.4% (active)"
- molecule: "O=C(Cn1c(=O)ccn(CCCCCCCCOc2ccc(Br)cc2)c1=O)Nc1ccc(Oc2ccc(Cl)cc2)cc1"
  growth: "53.4% (inactive)"
- molecule: "C=CCCCC(=O)CCC(=O)OCC1O[C@@H](O[C@@H]2C(O)[C@@H](OC(C)=O)C(C)O[C@H]2O[C@H](CC=C)CCCCC)C(O)[C@@H](OC(=O)/C(C)=C/C)[C@@H]1OC(=O)/C=C/c1ccccc1 (some centres not stated)"
  growth: "42.4% (inactive)"
- molecule: "O=C1C=CC2(NN=C(c3ccccc3)N2c2cccc(Cl)c2)c2cccc(O)c21 (configuration not stated)"
  growth: "59.3% (inactive)"
- molecule: "CCn1c(-c2nonc2N)nc2c(C#CC(C)(C)O)ncc(OC[C@H]3CCCNC3)c21"
  growth: "68.5% (inactive)"
- molecule: "CNC(=O)c1cccc2cc(Oc3ccnc4cc(OCC5(N)CC5)c(OC)cc34)ccc12"
  growth: "49.4% (inactive)"
- molecule: "Cn1cnc(-c2cc3nccc(Oc4ccc(NC(=S)NC(=O)Cc5ccccc5)cc4F)c3s2)c1"
  growth: "86.7% (inactive)"
- molecule: "C[C@H](NC(=O)c1c(N)nn2cccnc12)c1cc2cccc(C#Cc3cnn(C)c3)c2c(=O)n1-c1ccccc1"
  growth: "31.1% (inactive)"
- molecule: "COc1ccc(CCCc2c3[n+](cc4c(OC)c(OC)ccc24)CCc2cc4c(cc2-3)OCO4)cc1"
  growth: "54.5% (inactive)"
- molecule: "Cc1cc(-c2cc(OC(=O)c3ccccc3)ccc2Cl)cc2nnc(Nc3ccc(OCCN4CCCC4)cc3)nc12"
  growth: "-40.5% (active)"
- molecule: "CC(=O)OCCC/C(=C\\c1ccc2ccccc2c1)[N+](=O)[O-]"
  growth: "11.1% (inactive)"
- molecule: "CC(C)[C@@H](C)/C=C/[C@@H](C)[C@H]1CCC2=C3C=CC4=CC(=O)CC[C@]4(C)[C@H]3CC[C@@]21C"
  growth: "101% (inactive)"
- molecule: "CO[C@@H](C)Cn1c(=O)n(C)c2cnc3ccc(-c4cncc(C(C)(C)O)c4)cc3c21"
  growth: "-14.6% (active)"
- molecule: "CC(=O)OC1Oc2ccccc2-c2oc(=O)c(-c3cc4ccc(N(C)C)cc4oc3=O)cc21 (configuration not stated)"
  growth: "39.1% (inactive)"
- molecule: "COc1cc(NCCCN)c2ncccc2c1"
  growth: "84.1% (inactive)"
